Recorded measurements of TGI, one per entry
Tested on: SF-539 CNS
assay protocol: NCI tumour cell line growth inhibition, 48 h
property measured: TGI (µM)

Nc1ncnc2c1c(C(F)(F)F)cn2[C@@H]1O[C@H](CO)[C@@H](O)[C@H]1O	2.73
CN1/C(=C\C(I)C(I)C2=[N+](C)c3ccccc3C2(C)C)C(C)(C)c2ccccc21 (centres undefined)	23.6
COc1ccc(C(=O)c2cc(OC)c(OC)c(OC)c2)cc1OC(C)=O	0.0376
O=C1c2ccccc2C(=O)c2c(NCCCNCCO)ccc(NCCCNCCO)c21	15.3
COc1cc([C@@H]2c3cc4c(cc3[C@@H](NC(=O)c3ccc(N)cc3)C3COC(=O)[C@@H]32)OCO4)cc(OC)c1O (some centres undefined)	3.87
Nc1ccc(-c2nc3ccc4[nH]ncc4c3c3c2CCCC3)cc1F	5.85
COc1ccc(-c2ccc(/C=C/C(=O)NO)cc2)cc1	5.18
C=C(C=O)C1CC(=O)C(C(=O)OC)[C@@H]2O[C@@](C)(CC2=O)C[C@@H]2OC(=O)[C@]3(O[C@@H]23)[C@@H](C(=O)OC)C1 (some centres undefined)	61.2
O=C(CC(=O)N1N=C(c2ccccc2)C(N=Nc2ccc(C(=O)O)cc2)C1=O)Nc1ccc(F)cc1 (centres undefined)	54.5
O=C1c2[nH]cc(CN3CCNCC3)c2C(=O)c2c1c(O)c1ccccc1c2O	3.31
Cc1ccc(Cl)cc1Nc1nc(C(F)(F)F)ccc1C(=O)Nc1cccc(C(F)(F)F)c1	14.1
O=C(c1ccccc1Nc1ccnc(C(F)(F)F)c1)N1CCN(c2cccc(Cl)c2)CC1	41.1
Cn1nc(C(F)(F)F)c(-c2ccc(Cl)c(C(F)(F)F)c2)c1-c1ccc(OCc2ccc(Cl)cc2)cc1O	5.95
CCCCCCCCCCCC(=O)OCC1OC(n2cc(F)c(=O)[nH]c2=O)C(NC(=O)OCc2ccccc2)C(O)C1O (centres undefined)	49.4
NC(N)=N/N=C/c1c(-c2ccc([N+](=O)[O-])cc2)nc2sccn12	3.34
CCOC(=O)c1sc(-c2ccc(OS(=O)(=O)c3cccs3)c(C=O)c2)nc1C	3.42
CC(C)C[C@H](NC(=O)[C@H](CCc1ccccc1)NC(=O)CN1CCOCC1)C(=O)N[C@@H](Cc1ccccc1)C(=O)N[C@@H](CC(C)C)C(=O)[C@@]1(C)CO1	0.0367
N#CC1=C(N)C(C#N)(C#N)C(c2ccc(F)cc2)C=C1C1CC1 (centres undefined)	2.42
N#Cc1c(NC(=O)c2ccccc2)sc2c1CCC(=O)C2	2.59
CC(=O)/C=C/C=C(\C)CC/C=C(\C)CC(C)C	46.8

---

Parameter: GI50. Scope: all listed entries.
Test system: OVCAR-5 ovarian
assay protocol: NCI tumour cell line growth inhibition, 48 h
property measured: GI50

CCN1CCN(c2nc(NNC(=O)Cc3ccccc3)nc(N3CCN(C(c4ccccc4)c4ccccc4)CC3)n2)CC1	2.24 µM
CN(C)CCCNc1nn2c(=O)c3ccccc3nc2c2ccccc12	12.8 µM
CCCCCCCCCCCCn1c(C)nc2ccccc21	4.78 µM
CC(=O)Oc1ccc(OC(C)=O)c2ccccc12	17.5 µM
Nc1ncnc2c1c(C(F)(F)F)cn2[C@@H]1O[C@H](CO)[C@@H](O)[C@H]1O	1.02 µM
